experimental_system: T1, human Claudin 18.2 (CLDN18.2) (human, UniProt P56856-2 1-261)
T1 construct: whole, on cells; recombinantly expressed on CHO, HEK293, NCI-N87, NUGC4 or PANC-1 cells; also called CHO-CLDN18.2
test_description: FACS Exp. 1, MFI ratio CHO-18.2 over CHO-18.1
Decision: MFI_CHO-18.2/CHO-18.1 (@30 ug/ml) compared against 800; not below it gives y, below it gives n.

Record excerpt, results attached:
binder	answer_label
hz282-20 (antibody, V domains shown, humanized IgG; constant regions not specified) VH: QVQLQESGPGLVKPSETLSLTCTVAGFSLTSYNVYWIRQPPGKGLEWIGVIWNTGATRYNSALKSRVTISKDTSKSQVSLKLSSVTAADTAVYYCARDSAMPAIPFAYWGQGTLVTVSS VL: DIVMTQSPSSLSASVGDRVTINCKSSQSLFGSVRQKNYLAWYQQKPGKSPKLLIYLASTRESGVPDRFSGSGSGTDFTLTISSLQPEDFAKYYCQQYYDIPWTFGGGTKVEIK	y
hz282-5 (antibody, V domains shown, humanized IgG; constant regions not specified) VH: QVQLQESGPGLVKPSETLSLTCTVSGFSLTSYNVYWIRQPPGKGLEWIGVIWNTGATRYNSALKSRVTISVDTSKNQFSLKLSSVTAADTAVYYCARDSAMPAIPFAYWGQGTLVTVSS VL: DIVMTQSPDSLAVSLGERATINCKSSQSLFGSVRQKNYLAWYQQKPGQSPKLLIYLASTRESGVPDRFSGSGSGTDFTLTISSLQAEDVAKYYCQQYYDIPWTFGGGTKVEIK	n
hz282-16 (antibody, V domains shown, humanized IgG; constant regions not specified) VH: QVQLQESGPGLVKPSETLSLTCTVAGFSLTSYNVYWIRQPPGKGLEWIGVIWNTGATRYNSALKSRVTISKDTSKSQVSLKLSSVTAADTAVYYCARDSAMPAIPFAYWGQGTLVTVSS VL: DIQMTQSPSSLSASVGDRVTITCKSSQSLFGSVRQKNYLAWYQQKPGKSPKLLIYLASTRESGVPDRFSGSGSGTDFTLTISSLQPEDFAKYYCQQYYDIPWTFGGGTKVEIK	n
hz282-12 (antibody, V domains shown, humanized IgG; constant regions not specified) VH: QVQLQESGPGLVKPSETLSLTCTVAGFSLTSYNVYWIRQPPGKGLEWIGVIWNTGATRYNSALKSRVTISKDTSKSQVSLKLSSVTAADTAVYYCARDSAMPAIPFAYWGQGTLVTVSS VL: DIQMTQSPSSLSASVGDRVTITCKSSQSLFGSVRQKNYLAWYQQKPGKAPKLLIYLASTRESGVPSRFSGSGSGTDFTLTISSLQPEDFATYYCQQYYDIPWTFGGGTKVEIK	y

Now examine the next entry.
Exercise: Hi team, for hz282-9 (antibody, V domains shown, humanized IgG; constant regions not specified) VH: QVQLQESGPGLVKPSETLSLTCTVSGFSLTSYNVYWIRQPPGKGLEWIGVIWNTGATRYNSALKSRVTISVDTSKNQFSLKLSSVTAADTAVYYCARDSAMPAIPFAYWGQGTLVTVSS VL: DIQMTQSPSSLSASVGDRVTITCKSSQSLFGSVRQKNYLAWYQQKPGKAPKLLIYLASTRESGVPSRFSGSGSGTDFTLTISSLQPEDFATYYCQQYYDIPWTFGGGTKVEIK , is the recorded MFI_CHO-18.2/CHO-18.1 (@30 ug/ml) at or above 800?
Solution: n

Reference source for all entries: patent US20210380680A1
